Hey, just so you know, these numbers are from paper PMC12881670.

Molecular target: Mm_Fpr1 (Mus musculus, UniProt P33766)
Construct: expressed in transfected cells
Sequence (P33766 whole entry): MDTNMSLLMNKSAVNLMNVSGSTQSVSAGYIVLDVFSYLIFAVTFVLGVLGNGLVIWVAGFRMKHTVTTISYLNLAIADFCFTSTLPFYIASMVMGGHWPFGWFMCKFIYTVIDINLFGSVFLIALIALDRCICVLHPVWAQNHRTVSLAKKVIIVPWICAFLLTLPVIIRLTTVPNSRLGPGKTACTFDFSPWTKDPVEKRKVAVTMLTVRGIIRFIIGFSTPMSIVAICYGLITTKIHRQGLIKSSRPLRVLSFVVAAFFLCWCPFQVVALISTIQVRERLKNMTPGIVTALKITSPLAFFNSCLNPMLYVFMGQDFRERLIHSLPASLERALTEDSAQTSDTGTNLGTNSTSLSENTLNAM
Experiment: Competition binding of fluorescent WKYMVm, flow cytometry
Conditions: maximum proportion of competition with 10 nM K(5/6-FAM)-WKYMVm; mean; ND = no competition observed
Where a SMILES comes first, the peptide text is derived from it. The star is where a group is joined. For = O=C*
So basically, if Max Comp (%) comes in under 50% it's Yes, and if it's 50% or more it's No.

>>> group("CCCCOc1ccc(C(=O)NN2C(=O)c3ccccc3NC2c2ccc(OC)cc2)cc1 (stereo not drawn)")
"No"
>>> group("CC(C)c1c(NC(=O)Nc2ccc(Cl)cc2)c(=O)n(-c2ccccc2)n1C")
"No"
>>> group("CSCC[C@H](NC=O)C(=O)N[C@@H](CC(C)C)C(=O)N[C@@H](Cc1ccccc1)C(=O)O")
"Yes"
>>> group("Cc1cccc(-c2oc(C)nc2C(=O)Nc2cnn(Cc3nc(C(C)(F)F)co3)n2)c1")
"Yes"
>>> group("CSCC[C@H](NC=O)C(=O)N[C@@H](CC(C)C)C(=O)N[C@@H](Cc1ccccc1)C(=O)N[C@@H](CCCCN)C(=O)O [fMLFK, fMet-Leu-Phe-Lys] (For-MLFK-OH)")
"No"
>>> group("COc1cc(F)c([C@@H]2CNC(=O)[C@H]2NC(=O)Nc2ccccc2)c(F)c1")
"Yes"
